# tgt: CHIKV strain LR2006 OPY1 (LR) (ECSA genotype) (Chikungunya virus strain LR2006 OPY1)
# assayInfo: cell-based or functional assay
experimentalEndpoint: Neutralization (FRNT), EC50
Lab note: write values as number then unit, every time.

Problem: Fill in the blank: the reported Neutralization (FRNT), EC50 of 2B4 (antibody, V domains shown) VH: QVQLVQSGSELKKPGASVKVSCKASGYSFTSYSINWVRQAPGQGPEWMGWIDTNTGNPTYAQDFAGRFVFSLDTSVTTAYLQISSLKAGDTAVYYCATYYVDLWGSYRQDYYGMDVWGH VL: QSVLTQPPSASGTPGQRVTISCSGGSSNIGSNPVNWYQMVPGTAPKLLLYTNNQRPSGVPDRFSGSKSGTSASLAINGLQSEDEADYYCAVWDDSLSGRWVFGGGTKVTVL is ____.
Result: 5.6 ng/mL
